# assay_name: BSK_3C_SRB: Viability Assessment in the BioMAP Diversity Plus: 3C Assay (AID 2283023);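 further: cells read 24 h after compound dosing; fitted both ways against DMSO so a hit may be signal rise or drop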
# condition_details: primary human endothelial cells (HUVEC)
Active and inactive are the calls of the source. How the source made its calls: active means hit-call score of the fitted dose curve at least 0.9, where 1 is the maximum; inactive means score below 0.9.
Hi there, use one of these labels in your reply, thanks! active, inactive

Reference set (3 entries):
{"smiles_structure": "OCC(CO)(CO)CO", "label_value": "inactive"}
{"smiles_structure": "Cc1nc(-c2ccccn2)ncc1C(=O)Nn1cc(C)c2cc(F)ccc21", "label_value": "active"}
{"smiles_structure": "c1ccc2ncccc2c1", "label_value": "inactive"}

Query: Test call, this compound: "CCCC(CCC)C(=O)O"
Response: inactive

Query: Repeat for the following compound: "NC(=O)N1c2ccccc2C=Cc2ccccc21"
Response: inactive

Query: What do you have for "O=c1[nH]cnc2c1ncn2[C@H]1CC[C@@H](CO)O1" ?
Response: inactive

Query: Also "OCCOCCOCCO" ?
Response: inactive

Query: Try this compound too: "O=S(=O)(O)c1ccc(N=Nc2c(O)ccc3cc(S(=O)(=O)O)ccc23)cc1"
Response: inactive

###

# Read-out: solute carrier (SLCO1B1), SLCO1B1 (gene 10599)
# assay_name: LTEA_HepaRG_SLCO1B1: Life Technologies and Expression Analysis (LTEA) Assay for solute carrier (SLCO1B1) using HepaRG (AID 2283530)
# condition_details: mRNA level, 48 h; actives raise or lower the signal
Activity calls are given as the source filed them. Rule for the calls: active = hit-call score of the fitted dose curve at least 0.9, where 1 is the maximum; inactive = score below 0.9.
Can you answer with just one of these options? 1.0 (active), 0.0 (inactive)

Study these solved cases before continuing.
{"compound": "O=C(O)c1cccc(C[C@@H]2COc3ccc(OCc4nc5cc(F)ccc5s4)cc3[C@@H]2O)c1", "label_value": 1.0}
{"compound": "OCC(CO)(CO)CO", "label_value": 0.0}

Query: What is the recorded call for this compound in the test? "O=S1(=O)CCCO1"
Response: 0.0

Query: Query "CNC(C)=O" next
Response: 0.0

Query: Please give the result for "OCCNCCO" too.
Response: 0.0

Query: Also need CCCCC(CC)C(=O)OCCOCCOCCOC(=O)C(CC)CCCC (centres undefined) , thanks.
Response: 0.0

###

# System: Thyroperoxidase (TPO), gene 54314
# assay_name: CCTE_Simmons_AUR_rTPO: CCTE's Amplex UltraRed Assay for Thyroperoxidase (TPO) Inhibition, Simmons Lab (AID 2283662)
# Method: CCTE_Simmons_AUR_rTPO is a biochemical, single-readout assay that uses microsomes from rat thyroid gland in a tissue-based cell-free assay. Measurements were taken 0.5 hour after chemical dosing in a 384-well plate.CCTE_Simmons_AUR_rTPO is the assay component measured from the CCTE_Simmons_AUR_rTPO assay. […]
Active and inactive are the calls of the source. Rule for the calls: active = hit-call score of the fitted dose curve at least 0.9, where 1 is the maximum; inconclusive = response in the unintended direction; inactive = score below 0.9.
Could you please pick one outcome from this set? 1 for active, 0 for inactive

The examples below pair each entry with its known result.
{"smiles_structure": "c1ccc2cc3ccccc3cc2c1", "label_value": 1}
{"smiles_structure": "Cc1ccc(S(=O)(=O)NC(=O)NN2CCCCCC2)cc1", "label_value": 1}
{"smiles_structure": "O=S1(=O)CCCO1", "label_value": 0}
{"smiles_structure": "O=C(NO)C1(NS(=O)(=O)c2ccc(Oc3ccc(F)cc3)cc2)CCOCC1", "label_value": 1}

Shifting focus to the compound that follows.
Query: Hi, sorry to bother you, what did the test record for "CCn1nc(C)c2c1C(=O)NCC(c1ccc(O)cc1)=N2" ?
Response: 1

###

# Read-out: Plasminogen activator inhibitor-1 (PAI1), SERPINE1 (gene 5054)
# assay_name: BSK_BE3C_PAI1: BioMAP Diversity Plus: BE3C Assay for Plasminogen activator inhibitor-1 (PAI1) Biomarker Activity (AID 2283037)
# condition_details: primary human bronchial epithelial cells; actives raise or lower the signal
Active and inactive are the calls of the source. The calls were made as follows: active = hit-call score of the fitted dose curve at least 0.9, where 1 is the maximum; inactive = score below 0.9.
Respond using exactly one of the listed classes: active, inactive

These solved cases illustrate the format of a correct answer.
{"compound": "CCn1nc(C)c2c1C(=O)NCC(c1ccc(O)cc1)=N2", "label_value": "inactive"}
{"compound": "CCCOc1ccc(S(=O)(=O)N2CCN(CC)CC2)cc1-c1nc2c(CC)n(Cc3ccccn3)nc2c(=O)[nH]1", "label_value": "inactive"}
{"compound": "c1ccc2c(c1)-c1cccc3c1c-2cc1ccccc13", "label_value": "inactive"}
{"compound": "CNC(C)=O", "label_value": "inactive"}
{"compound": "COc1cc(C(C)C)c2c(c1)S(=O)(=O)N(COc1cc(=O)n3cccc(OCCN4CCCCC4)c3n1)C2=O", "label_value": "active"}

From here, focus on the item given below.
Query: Just curious, what result did "COS(C)(=O)=O" get here?
Response: inactive

###

# assay_name: APR_HepG2_CellCycleArrest_24hr: Apredica 24-hour HepG2 Assay for Cell Cycle Arrest (AID 2282905);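 further: cell cycle arrest scored as ratio of 2N to 4N nuclear DNA content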
# condition_details: imaging, actives raise or lower the signal
Active and inactive are the calls of the source. The calls were made as follows: active = hit-call score of the fitted dose curve at least 0.9, where 1 is the maximum; inactive = score below 0.9.
Respond using exactly one of the listed classes: Yes for active, No for inactive

Would you please look over these solved cases?
{"smiles_structure": "Cc1nc(-c2ccccn2)ncc1C(=O)Nn1cc(C)c2cc(F)ccc21", "label_value": "Yes"}
{"smiles_structure": "Cc1ncc([C@@H](CCCCCCc2ccc3c(n2)NCCC3)CC(=O)O)cn1", "label_value": "No"}
{"smiles_structure": "OCc1ccccc1", "label_value": "No"}

Query: Tell me the recorded outcome of this test for "CCOC(N)=O" .
Response: No

Query: # iterate: "O=S1(=O)CCCO1"
Response: No

Query: Now the molecule "CCCCCCCCCCCCCCO"
Response: Yes

Query: What would you report for "c1ccc2c(c1)-c1cccc3c1c-2cc1ccccc13" ?
Response: No

Query: Same for "C[C@@H](Oc1ccc(CNC(=O)c2cccnc2Oc2ccc3c(c2)OCO3)c(F)c1)C(=O)O"
Response: No

Query: One more molecule: "OC[C@H]1O[C@@](CO)(O[C@H]2O[C@H](CO)[C@@H](O)[C@H](O)[C@H]2O)[C@@H](O)[C@@H]1O"
Response: No

Query: Further, for "C[C@]12C=CC(=O)C=C1CC[C@H]1[C@@H]3C[C@@H](O)[C@](O)(C(=O)CO)[C@@]3(C)C[C@H](O)[C@@]12F" ?
Response: No

Query: What about this molecule? "CCCc1ccccc1"
Response: No

Query: // same read-out, input: "NC(=O)N1c2ccccc2C=Cc2ccccc21"
Response: No

Query: Try "Cn1cc[nH]c1=S" next.
Response: No

Query: Follow-up item: "CCOc1ccc2[nH]cc(C(=O)NCc3ccccc3)c(=O)c2n1"
Response: No

Query: Try "c1ccc2ncccc2c1" next.
Response: No

###

# Read-out: Human Leukocyte Antigen - DR isotype (HLADR), HLA-DRA (gene 3122)
# assay_name: BSK_CASM3C_HLADR: BioMAP Diversity Plus: CASM3C Assay for Human Leukocyte Antigen - DR isotype (HLADR) Biomarker Activity (AID 2283043);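 further: cell-surface HLA-DR protein level quantified by ELISA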
# condition_details: primary human coronary artery smooth muscle cells; actives raise or lower the signal
The source made the active and inactive calls. The calls were made as follows: active = hit-call score of the fitted dose curve at least 0.9, where 1 is the maximum; inactive = score below 0.9.
Tick one outcome: active, inactive

Here are 5 molecules together with their reported answers.
{"smiles_structure": "S=P(N1CC1)(N1CC1)N1CC1", "label_value": "inactive"}
{"smiles_structure": "NCC(F)(F)C(F)(F)C(F)(F)C(F)(F)F", "label_value": "inactive"}
{"smiles_structure": "C[C@]12C=CC(=O)C=C1CC[C@H]1[C@@H]3C[C@@H](O)[C@](O)(C(=O)CO)[C@@]3(C)C[C@H](O)[C@@]12F", "label_value": "active"}
{"smiles_structure": "NC(=O)N(O)[C@@H]1COc2cc(OCc3ccccc3)ccc21", "label_value": "inactive"}
{"smiles_structure": "CCc1cccc(CC)c1N", "label_value": "inactive"}

Query: For "FC(F)(F)COC(OCC(F)(F)F)OCC(F)(F)F" , what call appears in the results of this test?
Response: inactive

Query: Now consider "CCCC(CCC)C(=O)O" and answer again.
Response: inactive

Query: Can you handle "c1ccc2ncccc2c1" next?
Response: inactive

###

# assay_name: BSK_LPS_PGE2: BioMAP Diversity Plus: LPS Assay for Prostaglandin E2 (PGE2) Biomarker Activity (AID 2283082)
# condition_details: primary human HUVEC with PBMC; actives raise or lower the signal
The source made the active and inactive calls. How the source made its calls: active means hit-call score of the fitted dose curve at least 0.9, where 1 is the maximum; inactive means score below 0.9.
Hi there, use one of these labels in your reply, thanks! active, inactive

Query: Per the assay record, what outcome was assigned to "C[Si](C)(C)C(F)(F)C(F)(F)C(F)(F)F" ?
Response: inactive

Query: "C[C@@H](Oc1ccc(CNC(=O)c2cccnc2Oc2ccc3c(c2)OCO3)c(F)c1)C(=O)O" ?
Response: inactive

Query: Param item: "O=C(O)c1ccc2c(c1)nc(C(=O)NC1CCN(C3CC3)CC1)n2Cc1cc(-c2ccc(Cl)s2)on1"
Response: inactive

Query: And the next one, "OCCC(F)(F)C(F)(F)C(F)(F)C(F)(F)F" ?
Response: inactive

Query: Input "CC(C)c1nnc2ccc(-c3ocnc3-c3cc(F)ccc3F)cn12"
Response: active

Query: // repeat for "FC(F)(F)COC(OCC(F)(F)F)OCC(F)(F)F" and report
Response: inactive

Query: Same lookup for "CCCc1ccccc1" , please.
Response: inactive

Reference source: PubChem BioAssay (EPA / NIEHS)
